# PROTOCOL TEXT: Pharmacokinetic evaluation in SD rat (intravenous)
# Assay type: in vivo
# TEST SETTINGS: male, plasma, about 0.5 mg/kg
ATTRIBUTE MEASURED: clearance

INSERT INTO assay_data (mol_smiles, observed_value) VALUES
  ('CO[C@@H]1C[C@@H](CO)OC[C@@H]1Nc1ncnc2[nH]cc(C(=O)c3ccc(Oc4ccccc4)cc3Cl)c12', '9.8 mL/min/kg');

====

# PROTOCOL TEXT: Pharmacokinetic evaluation in CD-1 mouse (intravenous)
# Format: in vivo
# TEST SETTINGS: male, plasma, IV 0.21 mg/kg
ATTRIBUTE MEASURED: clearance (L/h/kg)

INSERT INTO results (mol_smiles, attribute_measured, readout_unit, observed_value) VALUES
  ('CO[C@@H]1C[C@@H](CO)OC[C@@H]1Nc1ncnc2[nH]cc(C(=O)c3ccc(Oc4ccccc4)cc3Cl)c12', 'clearance', 'L/h/kg', 0.127);

====

# PROTOCOL TEXT: Plasma protein binding (PPB) assay, R
# Type: in vitro ADME
# TEST SETTINGS: rat, dialysis 4 hr 37° C.
ATTRIBUTE MEASURED: fraction unbound at 4 h, 2 μM

INSERT INTO assay_data (mol_smiles, attribute_measured, observed_value) VALUES
  ('CO[C@@H]1C[C@@H](CO)OC[C@@H]1Nc1ncnc2[nH]cc(C(=O)c3ccc(Oc4ccccc4)cc3Cl)c12', 'fraction unbound at 4 h, 2 μM', 0.002);

====

# PROTOCOL TEXT: Pharmacokinetic evaluation in CD-1 mouse (intravenous)
# Type: in vivo
# TEST SETTINGS: male, plasma, IV 0.21 mg/kg, AUCu = AUC0-inf * Unbound PPB (Mouse)
ATTRIBUTE MEASURED: AUC (µM·h)

INSERT INTO results (molecule, attribute_measured, readout_unit, observed_value) VALUES
  ('CO[C@@H]1C[C@@H](CO)OC[C@@H]1Nc1ncnc2[nH]cc(C(=O)c3ccc(Oc4ccccc4)cc3Cl)c12 [Compound 4]', 'AUC', 'µM·h', 0.0124);

====

# PROTOCOL TEXT: Plasma protein binding (PPB) assay, D
# Format: in vitro ADME
# TEST SETTINGS: dog, dialysis 4 hr 37° C.
ATTRIBUTE MEASURED: fraction unbound at 4 h, 2 μM

INSERT INTO assay_data (mol_smiles, observed_value) VALUES
  ('CO[C@@H]1C[C@@H](CO)OC[C@@H]1Nc1ncnc2[nH]cc(C(=O)c3ccc(Oc4ccccc4)cc3Cl)c12', 0.001);

====

# PROTOCOL TEXT: Pharmacokinetic evaluation in SD rat (oral)
# Assay type: in vivo
# TEST SETTINGS: male, plasma, about 2 mg/kg
ATTRIBUTE MEASURED: Cmax (nM)

INSERT INTO measurements (molecule, observed_value) VALUES
  ('CO[C@@H]1C[C@@H](CO)OC[C@@H]1Nc1ncnc2[nH]cc(C(=O)c3ccc(Oc4ccccc4)cc3Cl)c12 [Compound 4]', 587);

====

# PROTOCOL TEXT: Pharmacokinetic evaluation in CD-1 mouse (oral)
# Format: in vivo
# TEST SETTINGS: male, plasma, 3.1 mg/kg
# Protocol: Assay purpose: To assay the pharmacokinetics of the compound in CD-1 mouse (oral) Pharmacokinetic study of oral and intravenously injected compound 4 and reference example 1 (compound 005-1) in CD-1 mouse. […] Whole blood was collected for a certain period of time to prepare the plasma. Drug concentration was analyzed by LC-MS/MS, and pharmacokinetic parameters were calculated by Phoenix WinNonlin software (Pharsight, USA).
ATTRIBUTE MEASURED: Cmax (nM)

INSERT INTO results (mol_smiles, observed_value) VALUES
  ('CO[C@@H]1C[C@@H](CO)OC[C@@H]1Nc1ncnc2[nH]cc(C(=O)c3ccc(Oc4ccccc4)cc3Cl)c12', 2980);

// provenance: patent US20230357248A1
